// reported TGI per item
# Tested on: SK-OV-3 ovarian
# measurement_notes: NCI tumour cell line growth inhibition, 48 h
measured_attribute: TGI

{"compound": "COc1ccc(-c2cc(-c3ccc(Nc4nc(Nc5ccc(Cl)cc5)nc(Nc5ccc(Cl)cc5)n4)cc3)nc(N)c2C#N)cc1", "assay_result": "> 28.1 µM"}
{"compound": "O=C1Nc2cccc3ncn(c23)C2=C1CCCC2", "assay_result": "> 100 µM"}
{"compound": "CC(C)Nc1[nH]c(C(=O)c2ccccc2)c(N)c1C(=S)Nc1ccccc1", "assay_result": "> 100 µM"}
{"compound": "O=C1C(C(O)(C(F)(F)Cl)C(F)(F)Cl)CCC1C(O)(C(F)(F)Cl)C(F)(F)Cl (stereo unspecified)", "assay_result": "> 10 µM"}
{"compound": "Cc1cccc(/C=N/NC(=S)NCc2ccccn2)n1", "assay_result": "97.7 µM"}
{"compound": "COc1cccc(NC(=O)c2sc3nc4c(cc3c2N)CCCC4)c1", "assay_result": "29.4 µM"}
{"compound": "O/N=C1\\CCc2cc(-c3nc(C4CCNCC4)[nH]c3-c3ccncc3)ccc21", "assay_result": "> 25 µM"}
{"compound": "CC1=C(C(=O)Nc2ccc([N+](=O)[O-])cc2)C(c2ccco2)C(C(=O)Nc2ccc([N+](=O)[O-])cc2)=C(C)N1", "assay_result": "62.9 µM"}
{"compound": "O=c1c(Cl)nnc2sc3ccccc3n12", "assay_result": "> 100 µM"}
{"compound": "COc1ccc(/C=C2/CCCC/C2=N/O)cc1", "assay_result": "> 100 µM"}
{"compound": "CC(Cl)(/C=C/Cl)C(Cl)/C=C/C(Cl)(CCl)CBr (stereo unspecified)", "assay_result": "30.9 µM"}
{"compound": "CC1(C)CC(=O)C2=C(C1)NC(SSC1=C(C#N)C(c3ccccc3)C3=C(CC(C)(C)CC3=O)N1)=C(C#N)C2c1ccccc1 (stereo unspecified)", "assay_result": "59 µg/mL"}
{"compound": "O=c1[nH]c2cc(C(F)(F)F)ccc2nc1Cc1ccccc1", "assay_result": "87.4 µM"}
{"compound": "O=[N+]([O-])c1ccc(N/N=C\\c2cc(Cl)ccc2O)nc1", "assay_result": "37.3 µM"}
{"compound": "CCOC(=O)C1C=C2O[C@@H]3OC4(CCCCC4)O[C@@H]3C2[C@H]2C(=O)C=CC(=O)[C@@]12C(=O)OC (stereo partly specified)", "assay_result": "32.2 µM"}
{"compound": "O=C1C2=C(c3ccccc31)C(c1cccc(Cl)c1)NC(=S)N2 (stereo unspecified)", "assay_result": "> 100 µM"}
{"compound": "Cc1c(NC(=O)C(=O)N=NC(=O)c2ccncc2)c(O)c2ccccc2c1O", "assay_result": "> 88.9 µM"}
{"compound": "N#C/C(=C1\\N=C(c2ccccc2O)Oc2ccccc21)c1ccc([N+](=O)[O-])cc1", "assay_result": "> 100 µM"}
{"compound": "O=C(c1ccc(Cl)cc1Cl)N(Cc1cccnc1)C(=S)N(Cc1cccnc1)C(=O)c1ccc(Cl)cc1Cl", "assay_result": "37.1 µM"}
{"compound": "Cc1nc(-c2ccccc2)c(C)n2c1nc1ccccc12", "assay_result": "46.3 µM"}
{"compound": "O=C1C2CC(Cl)C(SSC3CC4C(=O)N(SC(Cl)(Cl)C(Cl)Cl)C(=O)C4CC3Cl)CC2C(=O)N1SC(Cl)(Cl)C(Cl)Cl (stereo unspecified)", "assay_result": "8.53 µM"}
{"compound": "CC(=O)Oc1c(C)cc(-c2cc(C)c(OC(C)=O)c(C)c2)cc1C", "assay_result": "38.4 µM"}
{"compound": "O/N=C1/C(=C/c2ccc(F)cc2)CCCC1C(NO)c1ccc(F)cc1 (stereo unspecified)", "assay_result": "> 100 µM"}
{"compound": "CCCCN(CCCC)C(=O)C(=O)CC(=O)c1ccc(Br)cc1", "assay_result": "> 100 µM"}
{"compound": "CCOC(=O)C1(Cc2ccccc2)Cc2cc3c(cc2C1)CCC3", "assay_result": "90.9 µM"}
{"compound": "N=C(/C=C/c1ccc(-c2cn3cc(/C=C/C(=N)N4CCCC4)ccc3n2)cc1)N1CCCC1", "assay_result": "> 100 µM"}
{"compound": "COC(=O)Nc1nc2ccc(C(=O)c3ccc[nH]3)cc2[nH]1", "assay_result": "> 63 µM"}
{"compound": "S=c1[nH]nc(COc2ccc(Cl)cc2)o1", "assay_result": "> 100 µM"}
{"compound": "Nc1ccn(C=C=CCO)c(=O)n1", "assay_result": "> 1000 µM"}
{"compound": "O=C1C=C[C@]2(C[C@@H](c3cccc(C(F)(F)F)c3)O[C@@H](c3cccc(C(F)(F)F)c3)O2)O1", "assay_result": "28.1 µM"}
{"compound": "NNC(=O)/C(=C/c1cccc([N+](=O)[O-])c1)NC(=O)c1ccccc1", "assay_result": "> 100 µM"}
{"compound": "CC(=O)[CH-]C(=O)c1ccccc1.CC(=O)[CH-]C(=O)c1ccccc1.CCN(CC)CC[O-].CCN(CC)CC[O-].Cl.[Ti+4]", "assay_result": "> 100 µM"}
{"compound": "Cc1ccc(/C=C2\\CN(C)CC3C(c4ccc(C)cc4)=C(C#N)C(=O)NC23)cc1 (stereo unspecified)", "assay_result": "> 50 µM"}
{"compound": "O=S(=O)(O)CS(=O)(=O)OCCCl", "assay_result": "> 100 µM"}
{"compound": "CCOc1cc(/C=N\\N(C)C)cc(/C=N\\N(C)C)c1O", "assay_result": "> 100 µM"}
{"compound": "COc1cc2c3c(n(C)c(=O)c2cc1OC)-c1cc2c(cc1/C3=C\\CCCCN)OCO2", "assay_result": "46.7 µM"}
{"compound": "COC(=O)c1ccc2c(c1)CC1(C2)Cc2cc3c(c(C(=O)OC)c2C1)CCCC3 (stereo unspecified)", "assay_result": "> 100 µM"}
{"compound": "Cc1cn(CC2=NCCN2)c(=O)[nH]c1=O", "assay_result": "> 100 µM"}
{"compound": "C[C@H](CCC1=NCCN1)[C@H]1CC[C@H]2[C@@H]3[C@H](O)C[C@@H]4C[C@H](O)CC[C@]4(C)[C@H]3CC[C@]12C", "assay_result": "33.1 µM"}
{"compound": "CN(C)CCOc1ccc(I)cc1Cc1ccccc1", "assay_result": "33 µM"}
{"compound": "O=C1CC2CC=C[C@H]3c4cc5c(cc4C(=O)N1C23)OCO5 (stereo partly specified)", "assay_result": "> 50 µM"}
